System: HT29 colon
experiment notes: NCI-60 one-dose screen, 48 h
measurement context: 10 µM unless noted
This is part of a sample that, as a whole, favours compounds with a hit. Of some 83,000 tested, about 20% had one in any assay. Active and inactive are the calls of the source. How the source made its calls: active means growth percent below 10; inactive means the rest.
Write down the outcome that applies. Available outcomes: active, inactive

**Query** Query: recorded result category for `CC(=O)c1cc(C(=O)N2c3ccccc3Sc3ccccc32)n2ccc3ccccc3c12` in this test
**Result** inactive

**Query** Which outcome was assigned to `CS(=O)(=O)Nc1cc(-c2ccc3ncc(C#N)c(Nc4cccc(Cl)c4F)c3c2)cnc1Cl` in this test?
**Result** active

**Query** Answer briefly: the call reported for `NC(N)=Nc1ccc(Oc2cccc(Oc3ccc(Cl)c(C(F)(F)F)c3)c2)cn1` in this assay.
**Result** active

Cited source for all entries: PubChem BioAssay (NCI)
